experiment: Cytotoxicity against HEK293T cells assessed as inhibition of cell growth incubated for 72 hrs by MTT assay; type: toxicity, cell-based, HEK-293T; details: human
This section presents compounds with their documented log10 of IC50 at 72 h values.
endpoint.label: log10 of IC50 at 72 h (log10 of the value in µM)

>>> experimental_value("COc1ccc2c(c1)CC[C@@H]1[C@@H]2CC[C@]2(C)/C(=N/OC(=O)C[Se]C#N)CC[C@@H]12")
1.40
>>> experimental_value("C[C@]12CC[C@@H]3c4ccc(OCCC[Se]C#N)cc4CC[C@H]3[C@@H]1CCC2=O")
1.64
>>> experimental_value("COc1ccc2c(c1)CC[C@@H]1[C@@H]2CC[C@]2(C)C(NC(=O)c3ccc(C[Se]C#N)cc3)CC[C@@H]12 (stereo not given in full)")
1.39
>>> experimental_value("C[C@]12CC[C@@H]3c4cc(NC(=O)c5ccc(C[Se]C#N)cc5)c(O)cc4CC[C@H]3[C@@H]1CCC2=O")
1.43
>>> experimental_value("C[C@]12CC[C@@H]3c4ccc(O)cc4CC[C@H]3[C@@H]1CCC2NC(=O)c1ccc(C[Se]C#N)cc1 (stereo not given in full)")
1.13
>>> experimental_value("C[C@]12CC[C@@H]3c4cc(NC(=O)CCCCCC[Se]C#N)c(O)cc4CC[C@H]3[C@@H]1CCC2=O")
1.16
>>> experimental_value("COc1cc2c(cc1O)CC[C@@H]1[C@@H]2CC[C@]2(C)[C@@H](O)CC[C@@H]12")
0.66
>>> experimental_value("C[C@]12CC[C@@H]3c4ccc(OCCCCC[Se]C#N)cc4CC[C@H]3[C@@H]1CCC2=O")
1.89
>>> experimental_value("COc1ccc2c(c1)CC[C@@H]1[C@@H]2CC[C@]2(C)C(OC(=O)C[Se]C#N)CC[C@@H]12 (stereo not given in full)")
1.66
>>> experimental_value("COc1ccc2c(c1)CC[C@@H]1[C@@H]2CC[C@]2(C)/C(=N/OC(=O)c3ccc(C[Se]C#N)cc3)CC[C@@H]12")
1.37
>>> experimental_value("C[C@]12CC[C@@H]3c4ccc(OCCCCCCCCCCCC[Se]C#N)cc4CC[C@H]3[C@@H]1CCC2=O")
1.22
>>> experimental_value("C[C@]12CC[C@@H]3c4cc(NC(=O)C[Se]C#N)c(O)cc4CC[C@H]3[C@@H]1CCC2=O")
1.19
>>> experimental_value("C[C@]12CC[C@@H]3c4cc(NC(=O)CCCC[Se]C#N)c(O)cc4CC[C@H]3[C@@H]1CCC2=O")
1.26
>>> experimental_value("C[C@]12CC[C@@H]3c4cc(NC(=O)CCCCCCCCC[Se]C#N)c(O)cc4CC[C@H]3[C@@H]1CCC2=O")
1.24
>>> experimental_value("COc1ccc2c(c1)CC[C@@H]1[C@@H]2CC[C@]2(C)C(NC(=O)C[Se]C#N)CC[C@@H]12 (stereo not given in full)")
1.18
